Target: Mitogen-activated protein kinase 10 (Homo sapiens)
Sequence (P53779 whole entry): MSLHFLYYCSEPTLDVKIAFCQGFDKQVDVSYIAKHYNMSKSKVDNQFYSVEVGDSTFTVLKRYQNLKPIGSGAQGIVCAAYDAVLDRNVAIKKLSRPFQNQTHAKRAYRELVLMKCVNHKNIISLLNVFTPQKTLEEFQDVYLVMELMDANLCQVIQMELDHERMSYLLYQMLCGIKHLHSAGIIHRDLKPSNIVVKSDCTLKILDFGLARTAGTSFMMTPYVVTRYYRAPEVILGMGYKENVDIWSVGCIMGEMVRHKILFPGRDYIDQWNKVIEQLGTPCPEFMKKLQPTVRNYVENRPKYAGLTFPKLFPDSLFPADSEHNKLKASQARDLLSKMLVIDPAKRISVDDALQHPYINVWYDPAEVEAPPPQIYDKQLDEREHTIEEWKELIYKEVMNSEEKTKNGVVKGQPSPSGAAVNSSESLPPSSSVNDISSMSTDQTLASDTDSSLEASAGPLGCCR
Assay: Inhibition of JNK3 by spectrophotometric coupled enzyme assay
Ki under 700 nM gets met, anything at or over 700 nM gets not met.

Please check: Ki for Cc1ccc2c(c1)N(Cc1cc(F)cc3c1OCOC3)C(=O)/C2=N\O , strictly under 700 nM or not?
met

What about O=C1/C(=N\O)c2ccccc2N1Cc1ccccc1[N+](=O)[O-] ?
not met

Please do the same for Cc1ccc(Cn2c(O)c(N=O)c3ccccc32)cc1 as well.
not met

Repeat with COC(=O)c1ccc2c(c1)N(Cc1cc(F)cc3c1OCOC3)C(=O)/C2=N\O
met

Also check O=C1/C(=N\O)c2cc(Cl)ccc2N1Cc1cc(F)cc2c1OCOC2
not met

Also Cc1cccc(CN2C(=O)/C(=N\O)c3ccccc32)c1 ?
not met
